pIC50: −log10 of the molar value.
Literature pIC50 values, system: PIK3CA (human).

Recorded pIC50, per entry:
Enter reported pIC50 observed with PIK3CA (human) for Cc1cccc2cc(Cn3nc(-c4cn[nH]c4)c4c(N)ncnc43)n(-c3ccccc3C(F)(F)F)c(=O)c12 < 5.00

Enter reported pIC50 observed with PIK3CA (human) for Cc1nc2ccc(-c3ccc4c(c3)CN(C(=O)N3CCC(C)(C(N)=O)CC3)CCO4)cc2[nH]1 5.52 to 6.00

Enter reported pIC50 observed with PIK3CA (human) for Cn1cc(/C=C2\Oc3ccc(NS(C)(=O)=O)cc3C2=O)c2c(-c3ccccc3)ccnc21 5.23

Enter reported pIC50 observed with PIK3CA (human) for CC(=O)N(C)c1cccc(-c2cnc3c(N4CCOCC4)nc(-c4cnc(N)nc4)nc3c2)c1 6.70 to 7.30

Continuing:
Enter reported pIC50 observed with PIK3CA (human) for CCn1cc(CN(C)C)c2c(N3CCOCC3)nc(-c3ccc(NC(=O)NC)cc3)nc21 5.72

Enter reported pIC50 observed with PIK3CA (human) for Nc1nc2cc(-c3ccc4[nH]nc(N)c4c3)ccc2o1 < 5.00

Enter reported pIC50 observed with PIK3CA (human) for C[C@H](NC(=O)c1nc(-c2cccc(S(=O)(=O)N3CCOCC3)c2)cnc1N)c1cc2cccc(Cl)c2c(=O)n1-c1ccccc1 < 5.00

====

Literature pIC50 values, system: PIK3CA (human) (UniProt P42336).
pIC50: −log10 of the molar value.
parameter-measured: pIC50

Recorded pIC50, per entry:
Enter reported pIC50 observed with PIK3CA (human) (UniProt P42336) for Cn1ncc2c(Oc3ccc4[nH]ccc4c3)nc(-c3cccc(C(F)(F)F)c3)nc21 5.92

Enter reported pIC50 observed with PIK3CA (human) (UniProt P42336) for COCCN(C1CC1)[C@H]1CC[C@H](CNc2nc(N3CCOCC3)cc(-n3c(C(F)F)nc4ccccc43)n2)CC1 5.77

Enter reported pIC50 observed with PIK3CA (human) (UniProt P42336) for Cn1cc(/C=C2\Oc3cccc(O)c3C2=O)c2c(-c3ccc(S(=O)(=O)NC4CC4)cc3)ccnc21 7.70

[a] Cn1cc(/C=C2\Oc3ccc(NC(=O)Nc4cccnc4)cc3C2=O)c2c(N3CCC(C(=O)N4CC5CCC(C4)O5)CC3)ccnc21
[b] Nc1ncc(-c2nc(N3CCOCC3)nc3c(CN4CCN(C(=O)CO)CC4)csc23)cn1
Compare a and b by numeric pIC50 and name the larger one. Could you answer with the label of the item you picked? b
(b: 7.62, a: 5.78)

====

pIC50: −log10 of the molar value.
Literature pIC50 values, system: PIK3CA (human).

Find the recorded pIC50 belonging to C[C@H](NC(=O)c1nc(-c2ccccc2)cnc1N)c1cc2cccc(Cl)c2c(=O)n1-c1ccccc1 and report it. < 5.00

Continuing:
Find the recorded pIC50 belonging to Nc1nc2cc(-c3ccc4ncc(-c5ccnc(N6CCOCC6)c5)nc4c3)ccc2o1 and report it. > 6.00

Find the recorded pIC50 belonging to Nc1nc2cc(-c3ccc4ncc(N5CC(N6CCN(C7CC7)CC6)C5)cc4n3)ccc2o1 and report it. > 7.00

Find the recorded pIC50 belonging to C[C@H](Nc1ncnc2cccnc12)c1cc2cccc(Cl)c2c(N2CCN(C)CC2)n1 and report it. > 6.00
